Test system: SNB-19 CNS
Assay: NCI-60 one-dose screen, 48 h
Details: 10 µM unless noted
Protocol: Growth inhibition of the SNB-19 human tumor cell line is measured as a screen for anti-cancer activity. Cells are grown in 96 well plates and exposed to the test compound for 48 hours. Compounds are tested at a single concentration, which is 10^-5 M for most compounds. The reported endpoint is percent growth (GI% or GIPRCNT), where numbers from 0 - 100% represent growth inhibition, and numbers from -100% - 0 represent cell death. For example, a value of 40 represents 60% growth inhibition. […]
This is part of a sample that, as a whole, favours compounds with a hit. Of some 83,000 tested, about 20% had one in any assay. The source made the active and inactive calls. How the source made its calls: active means growth percent below 10; inactive means the rest.
Log the outcome using a class from active, inactive

IN: Please indicate how the test categorized "NC(=S)n1c(=O)n(-c2cccc(C(F)(F)F)c2)c(=O)c2cc(-c3ccc(F)cc3F)ccc21" .
OUT: inactive

IN: Please indicate how the test categorized "C#CCN(C)CCCOc1ccc(NCc2ccc(/C=C/C(=O)NO)cc2)cc1Cl" .
OUT: active

IN: Please indicate how the test categorized "CN1CCN(Cc2ccc(/C=N/Nc3ccnc4cc(Cl)ccc34)cc2)CC1" .
OUT: inactive

IN: Please indicate how the test categorized "CC1(C)CC[C@]23CC[C@]4(C)[C@H](CC[C@@H]5[C@@]6(C)CC[C@H](N)C(C)(C)[C@@H]6CC[C@]54C)[C@H]2[C@H]1OC3" .
OUT: inactive

IN: Please indicate how the test categorized CC(=O)C1=C(C)NC(NNc2ccccc2)=NC1c1ccc([N+](=O)[O-])cc1 (stereo not given) .
OUT: inactive

IN: Please indicate how the test categorized "CCOC(=O)c1c(NC(=O)c2cccc(C(F)(F)F)c2)sc2c3c(ccc12)OCN(C)C3" .
OUT: inactive

IN: Please indicate how the test categorized "CCN(CC)c1ccc(/C=N/NC(=O)c2ccc(NS(C)(=O)=O)cc2)cc1" .
OUT: inactive

IN: Please indicate how the test categorized "N#Cc1c(-c2cccs2)c(C#N)c(=O)n(Cc2nc3ccccc3[nH]2)c1N" .
OUT: inactive

Next:
IN: Please indicate how the test categorized Cc1[nH]c(C(=O)Nc2ccc(C(N)=O)cc2N2CCOC(C)C2)c(Cl)c1Cl (stereo not given) .
OUT: inactive

IN: Please indicate how the test categorized "O=C(N/N=C\c1ccc(F)cc1)c1ccc2nc(-c3ccc(Br)cc3)[nH]c2c1" .
OUT: inactive

====

Test system: SF-268 CNS
Assay: NCI-60 one-dose screen, 48 h (100 = growth as untreated, 0 = no growth, -100 = all killed)
Details: 10 µM unless noted
Method: Cells are grown in 96 well plates and exposed to the test compound for 48 hours. Compounds are tested at a single concentration, which is 10^-5 M for most compounds. The reported endpoint is percent growth (GI% or GIPRCNT), where numbers from 0 - 100% represent growth inhibition, and numbers from -100% - 0 represent cell death. For example, a value of 40 represents 60% growth inhibition. A value of 0 means no net growth occurred over the course of the experiment. […]
About 83,000 compounds went through this panel and 20% of them were active in at least one assay; those are over-represented in the sample as a whole.
Reported metric: growth (%)
Numbers only, in %.

# annotated cases, reported growth shown
IN: Please report the measured growth for "CC1(C)CC[C@]23CC[C@]4(C)[C@H](CC[C@@H]5[C@@]6(C)CC[C@H](NCO)C(C)(C)[C@@H]6CC[C@]54C)[C@H]2[C@H]1OC3"
OUT: 77

IN: Please report the measured growth for "Cc1cc(C)cc(NC2=C(Cl)C(=O)c3nc(C)ccc3C2=O)c1"
OUT: 85.2

IN: Please report the measured growth for "O=[N+]([O-])c1ccc(NC(=S)NNC(=S)Nc2ccc(F)cc2)cc1"
OUT: 95.1

IN: Please report the measured growth for "O=C(Nc1ccc(Cl)c(C(F)(F)F)c1)Nc1ccc2oc(=O)ccc2c1"
OUT: 65

For each entry beneath this line, provide reported growth.
1. C#C[C@]1(O)CC[C@H]2[C@@H]3CC=C4c5sc(N6CCN(C)CC6)nc5CC[C@]4(C)[C@H]3CC[C@@]21C
2. Cc1ccc(/C=N/Nc2nc(Nc3ccccc3)nc(Nc3ccc(S(N)(=O)=O)cc3)n2)cc1
3. O=C(CCCCCCN1CC(=O)N2[C@@H](C3CC3)c3[nH]c4ccccc4c3C[C@H]2C1=O)NO
4. CC[C@]12C=CCN3CC[C@]4(C(=C(C(=O)OC)C1)Nc1cc5c(cc14)[C@@H]1[C@H](O5)[C@@H](O)[C@@]4(CC)CC(C(=O)OC)=C5Nc6cc(O)ccc6[C@@]56CCN1C46)C32 (stereo partly drawn)

OUT:
1. 52.4
2. 87.1
3. 93.6
4. 6.98

All figures here come from PubChem BioAssay (NCI).
